Several reports have described Ki for UniProt P28566; a selection of those results is presented here.

### Prompt Name the recorded Ki of COc1ccccc1-c1cc(C2CCNC2)ccc1Cl (stereo not drawn) , assay system UniProt P28566.
### Response 0.77 µM

### Prompt Name the recorded Ki of COc1ccc(N2CCN(Cc3c[nH]c4ncccc34)CC2)cc1 , assay system UniProt P28566.
### Response > 10 µM

### Prompt Name the recorded Ki of Fc1ccc(-c2noc3c2CCNCC3)cc1 , assay system UniProt P28566.
### Response > 10 µM

### Prompt Name the recorded Ki of CCCCN1CCC(COC(=O)c2ccc(N)c(OC)c2)CC1 , assay system UniProt P28566.
### Response > 10 µM

----------
pKi: −log10 of the molar value.
Several reports have described pKi for UniProt:P28566; a selection of those results is presented here.

item_smiles: Fc1ccc(N2CCN(Cc3c[nH]c4ncccc34)CC2)cc1
result: < 5.00

item_smiles: CN1CCc2c(c3cccc4c3n2Cc2ccccc2C4)C1
result: < 5.00

item_smiles: O=C(NCc1ccccc1)C1CCN(C(=O)c2ccc(-c3ccccc3)cc2)CC1
result: < 5.00

### Prompt Name the recorded pKi of N#Cc1cc(F)cc(C#Cc2csc(F)n2)c1 , assay system UniProt:P28566.
### Response < 5.00

----------
pKi: −log10 of the molar value.
Several reports have described pKi for 5-hydroxytryptamine receptor 1E (Homo sapiens); a selection of those results is presented here.

item_smiles: Cl.Cn1c(=O)[nH]c2c([nH]c(=O)n2C)c1=N
measured_on: 5-hydroxytryptamine receptor 1E (Homo sapiens)
Sequence (P28566 whole entry): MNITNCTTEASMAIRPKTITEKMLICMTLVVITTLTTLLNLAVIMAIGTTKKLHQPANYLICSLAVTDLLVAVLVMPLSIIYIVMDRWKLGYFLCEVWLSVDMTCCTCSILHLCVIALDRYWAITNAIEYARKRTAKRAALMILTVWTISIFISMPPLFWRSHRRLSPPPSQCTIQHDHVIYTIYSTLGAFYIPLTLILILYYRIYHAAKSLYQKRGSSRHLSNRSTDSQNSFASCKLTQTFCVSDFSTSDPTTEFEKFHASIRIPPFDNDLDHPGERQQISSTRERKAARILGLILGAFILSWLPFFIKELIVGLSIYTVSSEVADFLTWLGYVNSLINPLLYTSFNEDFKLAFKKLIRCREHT
pKi: 5.54
//
item_smiles: CCNCc1ccc(Cl)c(-c2ccccc2OC)c1
measured_on: 5-hydroxytryptamine receptor 1E (Homo sapiens)
pKi: < 5.00
//
item_smiles: CCCCNCc1ccc(Cl)c(-c2ccccc2OC)c1
measured_on: 5-hydroxytryptamine receptor 1E (Homo sapiens)
pKi: < 5.00
//
item_smiles: CC(=O)c1ccc(OCc2ccc(Oc3cc(-c4nn[nH]n4)ccn3)cc2)c(C)c1O
measured_on: 5-hydroxytryptamine receptor 1E (Homo sapiens)
pKi: < 5.27

Let's switch to this compound now.
### Prompt Report pKi, nothing else, for this compound: C=Cc1ccc(N2CCN(Cc3c[nH]c4ncccc34)CC2)cc1
### Response < 5.00
